Tested on: A549
protocolDetails: Cytotoxicity against human A549 cells after 72 hrs by MTT assay
Format: functional, cell-based
conditionParameters: A549, 72 h
valueKind: IC50 (µM)
Give just the numeric value; µM need not be written.

Known results for compounds:
{"smilesStr": "Cc1c(O)ccc2c1O[C@@H](c1ccc(O)cc1)CC2", "unitName": "µM", "valueObserved": 39.7}
{"smilesStr": "COc1ccc(CCC(=O)c2ccc(O)cc2)c(O)c1", "unitName": "µM", "valueObserved": 12}
{"smilesStr": "O=C(/C=C/c1ccccc1O)c1ccc(O)cc1O", "unitName": "µM", "valueObserved": 89.9}
{"smilesStr": "COc1cccc2c1C(=O)c1c(O)c3c(c(O)c1C2=O)C[C@@](O)(C(=O)CO)C[C@@H]3O[C@H]1C[C@H](N)[C@H](O)[C@H](C)O1", "unitName": "µM", "valueObserved": 0.84}

Could you now look at the following compound, please?
Noted for "COc1cc2cc(Cc3ccc(O)cc3)c(=O)oc2cc1O" : its IC50 reads 88.1
